- Test system: OVCAR-3 ovarian
- Run description: NCI-60 one-dose screen, 48 h (100 = growth as untreated, 0 = no growth, -100 = all killed)
- Condition details: 10 µM unless noted
About 83,000 compounds went through this panel and 20% of them were active in at least one assay; those are over-represented in the sample as a whole.
Assay readout: growth (%)
Expressed in %, but write only the number.

# count of solved cases: 5
CN(C)C(=S)NN=C(c1ccccn1)c1ccccn1    51.9
COC(=O)[C@@H](Cc1c[nH]c2ccccc12)NC(=O)[C@H](Cc1ccccc1)NCc1ccncc1    101
Cc1[nH]c(C(=O)Nc2ccccc2OC2CCNC2)c(Cl)c1Cl (stereo not given)    84.5
O=C(O)/C=C/c1cn(-c2ccccc2)nc1-c1ccc(F)cc1    96
COc1cc2c(cc1-c1c(C)noc1C)ncc1nc(C3CCOCC3)n(C3CCC(OC(F)F)CC3)c12 (stereo not given)    44.7

Request: Give the reported growth for O=C1c2cccnc2C(=O)c2c1c(C(=O)OCCCN1CCOCC1)c1ccccn21 (system: OVCAR-3 ovarian).
Response: 2.32

Request: Give the reported growth for CCCS(=O)(=O)Nc1cccc(Nc2ncnc3cc(NC(=O)CCl)ccc23)c1Cl (system: OVCAR-3 ovarian).
Response: -85.3

Request: Give the reported growth for CSc1nc(CC(C)C)c(C#N)c(=O)n1C (system: OVCAR-3 ovarian).
Response: 61.3

Request: Give the reported growth for C#CCOc1cc(/C=N/Nc2nc(-c3ccc(OC)cc3)cs2)ccc1O (system: OVCAR-3 ovarian).
Response: 86.3

Request: Give the reported growth for CC(C)C(=O)Nc1ncc(C(=O)NCCN(Cc2ccccc2)C(=O)c2ccc(S(=O)(=O)Nc3ccccc3)cc2)s1 (system: OVCAR-3 ovarian).
Response: 106

Request: Give the reported growth for Cc1c(Cl)cccc1NC(=O)c1sc2nc3c(cc2c1N)CCCC3 (system: OVCAR-3 ovarian).
Response: 10.9

----------
Each entry below carries its recorded growth.
- Test system: HOP-62 NSCLC
- Run description: NCI-60 one-dose screen, 48 h (100 = growth as untreated, 0 = no growth, -100 = all killed)
- Condition details: 10 µM unless noted
About 83,000 compounds went through this panel and 20% of them were active in at least one assay; those are over-represented in the sample as a whole.
Expressed in %, but write only the number.

CCOC(=O)CC1CSC(N/N=C/c2ccc(O)cc2)=N1 (stereo not given)    91
O=C1CCC(C(=O)N/N=C/c2ccc([N+](=O)[O-])cc2)N1 (stereo not given)    110
CC(=O)OCC(=O)O[C@@H]1C[C@]2(C(C)C)O[C@@]1(C)[C@@H]1CC[C@@H](C)[C@H]1[C@@H]2OC(=O)/C=C/c1ccccc1    86.7
Nc1ncc(-c2ccc3ncnc(N4CCc5cc(F)c(Cl)cc54)c3c2)cc1C=O    15.2

Could you now consider this next compound?
Request: Form field: reported growth of Cc1c(Cl)cccc1NC(=O)c1sc2nc3c(cc2c1N)CCCC3
Response: 25.2

----------
- System: PC-3 prostate
- Run description: NCI-60 one-dose screen, 48 h
- Condition details: 10 µM unless noted
The panel holds about 83,000 compounds, 20% with a hit somewhere; the sample as a whole holds those more often. Calls of active or inactive are those of the source. The calls were made as follows: active = growth percent below 10; inactive = the rest.
The categories you may choose from are active, inactive

O=C1/C(=C/c2ccc(-c3ccc(Cl)cc3)o2)SC(=S)N1CCc1ccc(O)cc1    inactive
Cc1nc2cccc(NCc3ccc(C(=O)NO)cc3)c2c(=O)n1-c1ccccc1    inactive
O=C(/C=C/c1ccc(Cl)cc1)c1ccc(Nc2ccnc3cc(Cl)ccc23)cc1    inactive

Next compound, please.
Request: Just curious, what result did Cn1ccnc1C(=O)/C=C/c1ccc(C(=O)Nc2c(F)c(F)c(F)c(F)c2F)cc1 get here?
Response: active

----------
- Tested on: SF-295 CNS
- Run description: NCI-60 one-dose screen, 48 h (100 = growth as untreated, 0 = no growth, -100 = all killed)
- Condition details: 10 µM unless noted
Compounds without any hit were thinned out: in the full panel of roughly 83,000, 20% have a hit.
# note: boundary value 90% maps to NO; growth below it maps to YES

CCN1CCN(c2cc(C(=O)Nc3cccc(Nc4ccc5c(OC)cccc5n4)c3)cc(C(F)(F)F)c2)CC1    YES
CNC(=O)c1cc(Oc2ccc3nc(NC(=O)NC(C)C)sc3c2)ccn1    YES
CC(C)(C)CC(C)(C)Nc1c(-c2c(O)c3ccccc3oc2=O)nc2sccn12    NO
Cc1nc2ccccc2c(/C=C/c2ccc(Br)cc2)c1C(=O)/C=C/c1ccccc1    YES
O=C(CN1C(=O)c2ccccc2S1(=O)=O)Nc1nc(-c2cc3ccccc3oc2=O)cs1    NO
O=C(COc1ccc(/C=C2\Oc3ccccc3C2=O)cc1)Nc1nccs1    NO
CS(=O)(=O)Nc1cc(-c2ccc3ncnc(Nc4cccc(Cl)c4)c3c2)cnc1Cl    YES
COc1cc2c(cc1-c1c(C)noc1C)ncc1nc(C3CCOCC3)n(C3CCC(OC(F)F)CC3)c12 (stereo not drawn)    YES

Request: Dear reviewer, please state whether C=CC(=O)Nc1ccc2ncnc(Nc3cccc(NS(=O)(=O)CCC)c3Cl)c2c1 has growth strictly beneath 90%.
Response: YES

Request: Dear reviewer, please state whether CC(C)(C)[C@H](OCc1cn([C@H]2C[C@@H](O)[C@@H](CO)O2)c(=O)[nH]c1=O)c1ccc(C#Cc2ccccc2)cc1[N+](=O)[O-] has growth strictly beneath 90%.
Response: YES

Request: Dear reviewer, please state whether CCOC(=O)CC1CSC(N/N=C/c2ccc(O)cc2)=N1 (stereo not drawn) has growth strictly beneath 90%.
Response: NO

----------
- System: SNB-19 CNS
- Run description: NCI-60 one-dose screen, 48 h
- Condition details: 10 µM unless noted
The panel holds about 83,000 compounds, 20% with a hit somewhere; the sample as a whole holds those more often. The source made the active and inactive calls. The calls were made as follows: active = growth percent below 10; inactive = the rest.
The categories you may choose from are true (1) = active, false (0) = inactive

Some solved entries appear below for comparison.
COc1cccc(C(=O)Nc2cccc(NC(=O)c3ccccn3)c2)c1    false (0)
COC(=O)[C@@H](Cc1c[nH]c2ccccc12)NC(=O)[C@H](Cc1ccccc1)NCc1ccncc1    false (0)
COC(=O)CCc1c(/C=C2\N=C(c3ccc[nH]3)C=C2OC)[nH]c(C)c1C(=O)OCc1ccccc1    false (0)
CN1CCN(CCCNC(=O)c2c3c(n4ccccc24)C(=O)c2ncccc2C3=O)CC1    true (1)

Next compound, please.
Request: Just curious, what result did Cc1cccc(CN(Nc2ccccc2)c2ccccc2)n1 get here?
Response: false (0)

----------
- Tested on: U251 CNS
- Run description: NCI-60 one-dose screen, 48 h (100 = growth as untreated, 0 = no growth, -100 = all killed)
- Condition details: 10 µM unless noted
This is part of a sample that, as a whole, favours compounds with a hit. Of some 83,000 tested, about 20% had one in any assay. Activity calls are given as the source filed them. How the source made its calls: active means growth percent below 10; inactive means the rest.
Assay readout: growth

CCOc1ccccc1NC(=O)CCC(=O)OC    105% (inactive)
O=C(OCC(O)C(=O)NC12CC3CC(CC(C3)C1)C2)c1cccc(Br)c1 (stereo not given)    97.5% (inactive)
Cc1nc2ccccc2c(/C=C/c2ccc(Br)cc2)c1C(=O)/C=C/c1ccccc1    -81.9% (active)
Cc1ccc(Nc2cc(N)nc(N)n2)cc1    109% (inactive)
O=C(CN1C(=O)c2ccccc2S1(=O)=O)Nc1nc(-c2cc3ccccc3oc2=O)cs1    99.2% (inactive)

Could you now consider this next compound?
Request: Give the reported growth for Cc1cccc(C)c1NC(=O)Nc1ccccc1 (system: U251 CNS).
Response: 77.4% (inactive)

----------
- Test system: HCT-15 colon
- Run description: NCI-60 one-dose screen, 48 h (100 = growth as untreated, 0 = no growth, -100 = all killed)
- Condition details: 10 µM unless noted
About 83,000 compounds went through this panel and 20% of them were active in at least one assay; those are over-represented in the sample as a whole.
Each entry below carries its recorded growth.
Expressed in %, but write only the number.

Request: Give the reported growth for O=C1c2ccccc2C(=O)c2cc(Cn3c[n+](Cc4ccc5ccccc5c4)c4ccccc43)ccc21 (system: HCT-15 colon).
Response: 89.8

Request: Give the reported growth for CC1=C(C(=O)c2ccccc2)C(c2ccc3c(c2)OCO3)NC(=S)N1 (stereo not drawn) (system: HCT-15 colon).
Response: 33.7

Request: Give the reported growth for Nc1nc(N)c2c(n1)NC(c1ccc3c(c1)OCO3)CC(c1cccc(Nc3ccncc3)c1)=N2 (stereo not drawn) (system: HCT-15 colon).
Response: 98.4

Request: Give the reported growth for CCCCN(CCC#N)C(N)=O (system: HCT-15 colon).
Response: 101

Request: Give the reported growth for CCC(C)C(N)C(=O)NC(CC(C)C)C(=O)N1CCCC1C(=O)NC(Cc1c[nH]c2ccccc12)C(=O)NC(CCCCN)C(=O)NC(Cc1c[nH]c2ccccc12)C(=O)N1CCCC1C(=O)NC(Cc1c[nH]c2ccccc12)C(=O)NC(Cc1c[nH]c2ccccc12)C(=O)N1CCCC1C(=O)NC(Cc1c[nH]c2ccccc12)C(=O)NC(CCCNC(=N)N)C(=O)NC(CCCNC(=N)N)C(N)=O (stereo not drawn) (system: HCT-15 colon).
Response: 106

Request: Give the reported growth for C1=C2CCCC3=Cc4ccccc4OC23Oc2ccccc21 (system: HCT-15 colon).
Response: 20.1

Request: Give the reported growth for C=CCOC(=O)C1=C(C)N(CC)C(=O)N(CC)C1c1c(Cl)n(C)c2ccccc12 (stereo not drawn) (system: HCT-15 colon).
Response: 78.4

Request: Give the reported growth for O=c1ccc2nc(-c3ccccc3)nn(-c3ccccn3)c-2c1 (system: HCT-15 colon).
Response: 33.9
